Provenance of the data: patent US20030236190A1

Experimental System: T1, human insulin receptor (HIR) (human, UniProt P06213 28-1382, limits assumed)
T1 construct: Detergent-solubilised receptor; The natural receptor is an alpha2-beta2 heterotetramer cleaved from one precursor
Protocol Summary: 125I-insulin displacement, solubilised HIR
No end group written: not given here.
Quantity: Kd

GSLDESFYDWFERQLGKKKS (not fully specified; printed as GSLDESFYDWFERQLGKKK(S)) [S373] : 120 nM
PLAELWAYFEHSEQGRSSAH [S174] : 16000 nM
GRVDWLQRNANFYDWFVA [S250] : 8900 nM
SSNFYQALMLLS [S129] : 2900 nM
S169 (N-terminal Lig coupled to linker 12, dimer, N-N) peptide 1: XFHENFYDWFVRQVSKK peptide 2: XFHENFYDWFVRQVSKK : 580 nM
S376 (N-terminal Ald coupled to linker 19, dimer, N-N) peptide 1: XGSLDESFYDWFERQLGKK peptide 2: XGSLDESFYDWFERQLGKK : 160 nM
